Taken from PubChem BioAssay.

assay: S. cerevisiae growth modulation with rapamycin, primary screen, strain BY4716, OD600, 96 h (AID 1091); settings: called active from +8 up or from −8 down; also: test concentration not given here
Active and inactive are the calls of the source.
Select the correct class. Options are active, inactive and nothing else.

Worked set:
{"COMPOUND": "CCCCNC(=O)c1ccc(C#C[Si](C)(C)C)c(OC(C)=O)c1", "ASSIGNED CATEGORY": "inactive"}
{"COMPOUND": "CC(c1ccccc1)C(O)C1C=CC2C(=O)N(c3ccccc3)C(=O)C2N1Nc1ccc(C#N)cc1 (centres undefined)", "ASSIGNED CATEGORY": "active"}

Write down the call the test reported for this compound. Item: O=C1O[C@H](c2ccccc2)[C@H](c2ccccc2)N2[C@H]1[C@@H](C(=O)NC[C@H](O)c1ccccc1)[C@]1(C(=O)Nc3ccc(C#CCCO)cc31)[C@H]2c1ccccc1OCCO inactive

Write down the call the test reported for this compound. Item: C=C(CCCC)C(=O)CC[C@H](OC(=O)c1cccnc1)c1ccc(CO)o1 inactive

---

test: P. aeruginosa biofilm formation inhibitors, primary screen, strain PAO1, LB-PBS medium, absorbance 600 nm (AID 1176); also: test concentration not given here; details: P. aeruginosa PAO1 growth/biofilm, A600, 12 h; higher = more signal
EXPERIMENTAL READOUT: z-score
Respond numerically, and do not add a unit to the figure.

Answered cases to consult:
{"COMPOUND": "C=CCC(OC(C)=O)[C@@H]1[C@@H](N(Cc2ccc(-c3cccc(C(F)(F)F)c3)o2)C(=O)c2cccc3ccccc23)c2cc(OCCCO)ccc2N1C(=O)c1ccc2ccccc2c1 (stereo partly drawn)", "ASSAY VALUE": -0.464}
{"COMPOUND": "CCC(CC)C(O)C1C=CC2C(=O)N(C)C(=O)C2N1N1CCCCC1 (stereo not drawn)", "ASSAY VALUE": 0.571}
{"COMPOUND": "COc1ccc(CCNC(=O)[C@@]2(Sc3ccc(C)cc3)CC(=O)N(C(C)C)[C@@H]2c2ccc(CO)cc2)cc1", "ASSAY VALUE": 0.745}
{"COMPOUND": "CCOC(=O)C[C@H]1[C@H](OC(=O)c2ccc(-c3ccccc3)cc2)[C@@H](NC(=O)c2ccc3ccccc3c2)c2cc(OCCCO)ccc2N1C(=O)c1ccccc1", "ASSAY VALUE": 0.055}

# return recorded z-score for entry O=C1NC(=O)C2C1C=CC(C(O)c1ccc(F)cc1)N2Nc1ccccn1 (stereo not drawn) 1.77

# return recorded z-score for entry CC(C)(C)N1CC=CC23O[C@@H]4/C=C\CCCOC(=O)C4[C@H]2C(=O)N(CCCCCCO)[C@@H]3C1=O (stereo partly drawn) 1.2

# return recorded z-score for entry CCCC[C@@H](O)C1=C(COC)Cn2c(=O)n(-c3ccccc3)c(=O)n2[C@H]1CO -0.131

# return recorded z-score for entry Cc1ccc(S[C@]2(C(=O)NCCCN(C)C)CC(=O)N(Cc3ccccc3Cl)[C@@H]2c2ccc(CO)cc2I)cc1 -0.833

---

assay: RPMI8226 myeloma cell viability, profiling panel, resazurin fluorescence, basal, 24 h, PK04 Diversity Set (AID 1180); conditions: higher = more signal;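 also: RPMI8826 multiple myeloma cell line at 5000 cells per well; test concentration not given here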
Parameter: z-score. Scope: all listed entries.
Respond numerically, and do not add a unit to the figure.

{"COMPOUND": "CN(C)C(=O)[C@]1(Cc2ccccc2)N=C(c2ccc(OCCCO)cc2)O[C@@H]1c1ccccc1", "z-score": -0.247}

# return recorded z-score for entry C=CC[C@]1(C(=O)OC)N=C(c2ccc(OCCCO)cc2)O[C@H]1c1ccccc1N=[N+]=[N-] -0.406

# return recorded z-score for entry O=C1O[C@H](c2ccccc2)[C@H](c2ccccc2)N2[C@H]1[C@@H](C(=O)NC[C@H](O)c1ccccc1)[C@]1(C(=O)Nc3ccc(C#CCCO)cc31)[C@H]2c1ccccc1OCCO -0.591

---

tested on: Sonic hedgehog protein (Shh); experiment: small-molecule binders of Shh protein, primary screen, biochemical, small-molecule microarray, 635/667 nm fluorescence (AID 1151); conditions: small-molecule microarray binding, 635 nm fluorescence; higher = more signal;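 also: Shh protein binding to compounds spotted on small-molecule microarray slides; score combines spot fluorescence intensity with signal-to-noise across triplicate slides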
Parameter: composite z-score. Scope: all listed entries.

Answered cases to consult:
{"COMPOUND": "COC(=O)c1c(CC[C@@H](CO)NC(=O)N[C@@H](Cc2ccccc2)Cn2cc(-c3cncn3C)nn2)oc(C(C)=O)c1C(=O)OC", "composite z-score": 1.75}
{"COMPOUND": "COCCOC(=O)N1C(=O)[C@@]2(c3cc(C#CCC(C(=O)OC)C(=O)OC)ccc31)[C@H](C(=O)N1CCc3cc(OC)c(OC)cc3C1)[C@H]1C(=O)O[C@H](c3ccccc3)[C@H](c3ccccc3)N1[C@@H]2c1ccc(O)cc1", "composite z-score": 1.9}
{"COMPOUND": "C[C@@H](OCc1ccccc1)C1NC(=O)[C@@]23C(=O)N[C@@H](Cc4ccccc4)C2[C@H](C)[C@@]2(C)O[C@H]2C3/C=C/C/C=C\\CNC(=O)[C@H](Cc2ccccc2)NC1=O (some centres undefined)", "composite z-score": 1.07}
{"COMPOUND": "COc1ccc(CC[C@H](O)c2cccc(OCC(=O)OC(C)(C)C)c2)cc1", "composite z-score": 1.37}
{"COMPOUND": "O=C1OCCC=C[C@H]2OC34C=CCN(CCN5CCOCC5)C(=O)[C@H]3N(CCCO)C(=O)[C@@H]4C12 (some centres undefined)", "composite z-score": 0.243}
{"COMPOUND": "CCCC[C@@H]1C[C@H]1[C@@H](NC(=O)c1ccc(C(F)(F)F)cc1)c1ccc(C(=O)OC)cc1", "composite z-score": 1.91}
{"COMPOUND": "COc1ccc([Si](C)(C)[C@H]2[C@H](CCn3cc([C@H](O)c4ccccc4)nn3)O[C@@]3(C(=O)N(C)c4c(Br)cc(C)cc43)[C@@H]2C)cc1", "composite z-score": 0.964}
{"COMPOUND": "COc1ccc([Si](C)(C)[C@H]2[C@H](CCO)O[C@@]3(C(=O)N(Cc4ccc(N5CCOC5=O)cc4)c4ccccc43)[C@@H]2C)cc1", "composite z-score": 0.397}
{"COMPOUND": "COCCOC(=O)N1C(=O)[C@@]2(c3cc(C#CC4(O)CCCCCC4)ccc31)[C@H](c1ccc(OCCO)cc1)N1[C@H](c3ccccc3)[C@H](c3ccccc3)OC(=O)[C@H]1[C@@H]2C(=O)N1CCCCCCC1", "composite z-score": 2}
{"COMPOUND": "CC(=O)c1ccc(C(O)C2C=CC3C(=O)N(C)C(=O)C3N2NC(=O)OC(C)(C)C)cc1 (centres undefined)", "composite z-score": -0.0538}

# return recorded composite z-score for entry CCc1cccc(NC(=O)O[C@H]2[C@H](OC(=O)Nc3ccc4c(c3)OCO4)[C@H](OC(=O)Nc3ccc4c(c3)OCO4)[C@@H](OC)O[C@@H]2CO)c1 1.91

# return recorded composite z-score for entry CCCCC(=C=CC[C@@H](O)c1ccc(OCCO)cc1)C[C@@H](O)c1ccccn1 1.48

# return recorded composite z-score for entry CCCCCCc1nc(-c2ccc(OC)nc2)cc2c1[Si](C(C)C)(C(C)C)OC2 -0.0247

# return recorded composite z-score for entry C=CC[C@]1(C(=O)OC)N=C(c2ccc(OCCCO)cc2)O[C@H]1c1ccccc1N=[N+]=[N-] 1.68

---

assay: binders of probe aFGF10 on microarray, primary screen, stem cell growth factor project, biochemical, small-molecule microarray, fluorescence 635/667 (AID 1071); settings: higher = more signal;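 also: score merges 667 nm spot intensity and signal to noise from triplicate slides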
EXPERIMENTAL READOUT: composite z-score
Respond numerically, and do not add a unit to the figure.

Answered cases to consult:
{"COMPOUND": "COC(=O)C1=CC(CCCO)=CC(c2ccc(CN3CCCC3)cc2)N(Cc2sc3ccccc3c2Cl)C=C1C(=O)OC (stereo not given)", "composite z-score": 1.31}
{"COMPOUND": "COCCOC(=O)N1C(=O)[C@@]2(c3ccccc31)[C@H](c1ccc(OCCO)cc1)N1[C@H](c3ccccc3)[C@H](c3ccccc3)OC(=O)[C@H]1[C@@H]2C(=O)N1CCN(c2ncccn2)CC1", "composite z-score": 0.559}
{"COMPOUND": "[N-]=[N+]=NCc1ccccc1[C@H]1OC(c2ccc(OCCCO)cc2)=N[C@@]1(Cc1ccccc1)C(=O)N1CCOCC1", "composite z-score": 1.15}

# return recorded composite z-score for entry CCOC(=O)C[C@H]1[C@H](OC(=O)Cc2ccc3c(c2)OCO3)[C@@H](NC(=O)c2ccccc2)c2cc(OCCCO)ccc2N1C(=O)Cc1ccc(OC)cc1 0.306

# return recorded composite z-score for entry O=C1C2C=CC(C(O)c3ccc([N+](=O)[O-])cc3)N(Nc3ccccc3)C2C(=O)N1c1ccccc1 (stereo not given) -0.115

# return recorded composite z-score for entry C=C(C(=O)CC[C@@H](OC(C)=O)c1cccc(OCCO)c1)C(C)C 0.365

# return recorded composite z-score for entry COC(=O)[C@@]1(Cc2ccc(OC)cc2)[C@H]2c3cc(C(=O)N4CCCC4)n(CCc4ccc(OC)c(Br)c4)c3C[C@H]2CN1C(=O)c1ccccc1 0.929

# return recorded composite z-score for entry C=CC[C@@]12N=C(c3ccc(OCCCO)cc3)O[C@@H]1c1ccccc1N(Cc1ccccc1)C2=O 0.524

# return recorded composite z-score for entry N#Cc1ccc(C(O)C2C=CC3C(=O)N(c4ccccc4)C(=O)C3N2Nc2ccc([N+](=O)[O-])cc2)cc1 (stereo not given) 0.863
